- tested-on: T1, human beta-Klotho (human, UniProt Q86Z14 1-1044)
- T1 sequence (looked up): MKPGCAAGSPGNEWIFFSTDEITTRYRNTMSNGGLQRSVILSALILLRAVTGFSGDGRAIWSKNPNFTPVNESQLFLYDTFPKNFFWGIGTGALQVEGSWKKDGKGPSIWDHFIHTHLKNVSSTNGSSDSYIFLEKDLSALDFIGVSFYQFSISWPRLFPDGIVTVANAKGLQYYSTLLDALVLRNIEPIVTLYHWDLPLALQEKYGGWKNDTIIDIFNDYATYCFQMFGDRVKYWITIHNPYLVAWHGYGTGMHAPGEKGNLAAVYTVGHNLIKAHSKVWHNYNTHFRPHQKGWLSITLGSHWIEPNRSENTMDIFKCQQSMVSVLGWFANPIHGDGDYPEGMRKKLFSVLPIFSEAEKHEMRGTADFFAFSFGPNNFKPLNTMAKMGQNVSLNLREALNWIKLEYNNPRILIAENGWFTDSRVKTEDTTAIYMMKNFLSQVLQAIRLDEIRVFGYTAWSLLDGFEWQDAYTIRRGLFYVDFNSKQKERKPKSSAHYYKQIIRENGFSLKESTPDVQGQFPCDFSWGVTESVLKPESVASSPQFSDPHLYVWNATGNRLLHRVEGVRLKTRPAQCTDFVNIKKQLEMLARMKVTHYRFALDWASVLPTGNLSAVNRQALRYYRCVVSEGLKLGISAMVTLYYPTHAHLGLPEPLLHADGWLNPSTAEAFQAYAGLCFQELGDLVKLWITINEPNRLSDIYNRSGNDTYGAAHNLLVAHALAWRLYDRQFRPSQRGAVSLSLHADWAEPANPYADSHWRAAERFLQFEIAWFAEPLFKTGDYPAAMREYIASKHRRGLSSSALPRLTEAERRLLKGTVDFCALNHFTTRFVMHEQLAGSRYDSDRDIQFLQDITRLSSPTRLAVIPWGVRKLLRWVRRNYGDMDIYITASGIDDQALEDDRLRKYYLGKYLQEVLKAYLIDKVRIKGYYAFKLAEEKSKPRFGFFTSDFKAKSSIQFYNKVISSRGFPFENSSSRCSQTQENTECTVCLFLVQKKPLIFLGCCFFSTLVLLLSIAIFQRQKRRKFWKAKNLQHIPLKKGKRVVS
- measurement-description: cell-based or functional assay
Would you kindly list pERK-HEK293-Beta-klotho without HSA [EC50 (nM)] Median Value for each of these binders?
Lab note: write values as number then unit, every time.

What the record says about S71C Met-FGF21 derivative of Example 14 (ligand, S-71-({2-[2-(2-{2-[2-(2-{2-[(S)-4-carboxy-4-(17-carboxy-heptadecanoylamino)-butyrylamino]-ethoxy}-ethoxy)-acetylamino]-ethoxy}-ethoxy)-acetylamino]-ethylcarbamoyl}-methyl) on the thiol of Cys71) MHPIPDSSPLLQFGGQVRQRYLYTDDAQQTEAHLEIREDGTVGGAADQSPESLLQLKALKPGVIQILGVKTCRFLCQRPDGALYGSLHFDPEACSFRELLLEDGYNVYQSEAHGLPLHLPGNKSPHRDPAPRGPARFLPLPGLPPALPEPPGILAPQPPDVGSSDPLSMVGPSQGRSPSYAS : pERK-HEK293-Beta-klotho without HSA [EC50 (nM)] Median Value is 2.9 nM

What the record says about S71C Met-FGF21 derivative of Example 5 (ligand, S-71-[1-(2-{2-[2-(2-{2-[2-(2-{2-[(S)-4-carboxy-4-(19-carboxy-nonadecanoylamino)-butyrylamino]-ethoxy}-ethoxy)-acetylamino]-ethoxy}-ethoxy)-acetylamino]-ethylcarbamoyl}-ethyl)-2,5-dioxo-pyrrolidin-3-yl] on the thiol of Cys71) MHPIPDSSPLLQFGGQVRQRYLYTDDAQQTEAHLEIREDGTVGGAADQSPESLLQLKALKPGVIQILGVKTCRFLCQRPDGALYGSLHFDPEACSFRELLLEDGYNVYQSEAHGLPLHLPGNKSPHRDPAPRGPARFLPLPGLPPALPEPPGILAPQPPDVGSSDPLSMVGPSQGRSPSYAS : pERK-HEK293-Beta-klotho without HSA [EC50 (nM)] Median Value is 1.1 nM

What the record says about (Q15F, K56R, K59R, K69R, D102T, N121Q, K122R, Y179F, A180E, S181R) Gly-FGF21 (ligand) GHPIPDSSPLLQFGGFVRQRYLYTDDAQQTEAHLEIREDGTVGGAADQSPESLLQLRALRPGVIQILGVRTSRFLCQRPDGALYGSLHFDPEACSFRELLLETGYNVYQSEAHGLPLHLPGQRSPHRDPAPRGPARFLPLPGLPPALPEPPGILAPQPPDVGSSDPLSMVGPSQGRSPSFER : pERK-HEK293-Beta-klotho without HSA [EC50 (nM)] Median Value is 75 nM

From: patent US20100216715A1
